Reported growth by item:
Test system: HCT-15 colon
Assay Name: NCI-60 one-dose screen, 48 h (100 = growth as untreated, 0 = no growth, -100 = all killed)
Conditions: 10 µM unless noted
This is part of a sample that, as a whole, favours compounds with a hit. Of some 83,000 tested, about 20% had one in any assay. Activity calls are given as the source filed them. Rule for the calls: active = growth percent below 10; inactive = the rest.

Compound	Tested System	growth
COC(=O)[C@H](Cc1cn(C)cn1)NC(=O)[C@H](Cc1c[nH]c2ccccc12)NC(=O)Nc1cc(C(F)(F)F)cc(C(F)(F)F)c1	HCT-15 colon	27.7% [100 µM] (inactive)
Br/C(=N\Nc1nn[nH]n1)c1ccccc1	HCT-15 colon	96.6% (inactive)
O=c1c2c(c3ccccc3n1-c1ccccc1)NC(=S)NC2c1ccccc1 (centres undefined)	HCT-15 colon	97.1% (inactive)
COc1cc2cc3cc4cc(OC)c(OC)cc4c(C)[n+]3cc2cc1OC (tested in a mixture with another compound)	HCT-15 colon	91.8% (inactive)

These entries and their values trace back to PubChem BioAssay (NCI).
